# concentration at 5 min per entry
# Test name: BBB permeability, cassette intravenous dosing
# Type: in vivo, male CD-1 mice
# Test context: male, CD-1, mouse, brain, cassette IV 5 mg/kg, 10% DMSO in PBS, read-out: Brain Conc.
Readout label: concentration at 5 min (ng/g)

{"Compound": "CCCCCCNC(=O)c1ncn2c(=O)n(C)nnc12", "Readout label": "concentration at 5 min", "Test result": 2080}
{"Compound": "Cn1nnc2c(C(=O)NC3CCCCC3)ncn2c1=O", "Readout label": "concentration at 5 min", "Test result": 3050}
{"Compound": "Cn1nnc2c(C(N)=O)ncn2c1=O [TMZ, temozolomide]", "Readout label": "concentration at 5 min", "Test result": 1290}

---

# Tested on: P-gp
# Test name: Bidirectional Caco-2 permeability / P-gp efflux assay
# Assay type: in vitro ADME
# Test context: human, Caco-2; without verapamil; read-out: Efflux Ratio BA/AB p-gp Inhibitor (−)
// values below are reported efflux ratio
Readout label: efflux ratio

{"Compound": "Cn1nnc2c(C(=O)NC3CCCCC3)ncn2c1=O [TP5]", "Test result": 0.9}
{"Compound": "CCCCCCNC(=O)c1ncn2c(=O)n(C)nnc12 [TP3]", "Test result": 0.6}
{"Compound": "Cn1nnc2c(C(N)=O)ncn2c1=O [TMZ, temozolomide]", "Test result": 1}

---

# Test system: U251
# Test context: read-out: IC50 U251 cell proliferation (BrdU ELISA); 72 hours of treatment
pIC50: −log10 of the molar value.
Readout label: pIC50

{"Molecule": "Cn1nnc2c(C(=O)NCCCC[C@@H]3NC(=O)[C@@H](Cc4ccc(O)cc4)NC(=O)[C@H](CC(=O)O)NC(=O)CNC(=O)[C@H](CCCNC(=N)N)NC3=O)ncn2c1=O", "Readout label": "pIC50", "Test result": 4.15}

---

# Test system: P-gp
# Test name: Bidirectional Caco-2 permeability / P-gp efflux assay
# Format: in vitro ADME
# Test context: human, Caco-2, Efflux Ratio BA/AB p-gp Inhibitor (−)

{"Molecule": "C[C@H]1O[C@@H](O[C@H]2[C@@H](O)C[C@H](O[C@H]3[C@@H](O)C[C@H](O[C@H]4CC[C@@]5(C)[C@H](CC[C@@H]6[C@@H]5C[C@@H](O)[C@]5(C)[C@@H](C7=CC(=O)OC7)CC[C@]65O)C4)O[C@@H]3C)O[C@@H]2C)C[C@H](O)[C@@H]1O [Digoxin]", "efflux ratio": 13.6}

---

# Tested on: GBM8
# Test name: AlamarBlue cell viability, GBM8 patient-derived cell line
# Type: cell-based
# Test context: 72 h, read-out: IC50, 72 h
Readout label: IC50 (µM)

{"Molecule": "Cn1nnc2c(C(=O)NC3CCCCC3)ncn2c1=O", "Tested target": "GBM8", "Test result": 28}
{"Molecule": "CCCCCCNC(=O)c1ncn2c(=O)n(C)nnc12", "Tested target": "GBM8", "Test result": 2}

---

# Test system: U87
# Test name: cells
# Test context: read-out: IC50, 72 h; U87MG, MGMT −, Table 14
pIC50: −log10 of the molar value.
Readout label: pIC50

{"Molecule": "Cn1nnc2c(C(=O)NCCCC[C@@H]3NC(=O)[C@@H](Cc4ccc(O)cc4)NC(=O)[C@H](CC(=O)O)NC(=O)CNC(=O)[C@H](CCCNC(=N)N)NC3=O)ncn2c1=O", "Tested target": "U87", "Test result": "< 4.00"}

---

# System: P-gp
# Test name: Bidirectional Caco-2 permeability / P-gp efflux assay
# Format: in vitro ADME
# Test context: human, Caco-2
# Method: Permeability of the compounds was evaluated in the bidirectional Caco-2 assay including identification of P-glycoprotein substrate (Pgp-mediated transport). Verapamil was used as a p-gp inhibitor. The apparent permeability (Papp) was calculated using the following equation: Papp=VA/Area×Time×[drug]acc/[drug]initial,d Permeability of the compounds was evaluated in the bidirectional Caco-2 assay as described in Example 11 (Table 15).

{"Molecule": "C[C@H]1O[C@@H](O[C@H]2[C@@H](O)C[C@H](O[C@H]3[C@@H](O)C[C@H](O[C@H]4CC[C@@]5(C)[C@H](CC[C@@H]6[C@@H]5C[C@@H](O)[C@]5(C)[C@@H](C7=CC(=O)OC7)CC[C@]65O)C4)O[C@@H]3C)O[C@@H]2C)C[C@H](O)[C@@H]1O", "Papp B→A [×10⁻⁶ cm/s]": 15.8}

---

# System: P-gp
# Test name: Bidirectional Caco-2 permeability / P-gp efflux assay
# Format: in vitro ADME
# Test context: human, Caco-2, Caco-2 permeability; P-gp efflux ratio, Table 15; read-out: Efflux Ratio
# Protocol: Permeability of the compounds was evaluated in the bidirectional Caco-2 assay including identification of P-glycoprotein substrate (Pgp-mediated transport). Verapamil was used as a p-gp inhibitor. The apparent permeability (Papp) was calculated using the following equation: Papp=VA/Area×Time×[drug]acc/[drug]initial,d Permeability of the compounds was evaluated in the bidirectional Caco-2 assay as described in Example 11 (Table 15).

{"Molecule": "Cn1nnc2c(C(N)=O)ncn2c1=O [TMZ, temozolomide]", "efflux ratio": 1.04}

---

# Test name: BBB permeability, cassette intravenous dosing
# Format: in vivo, male CD-1 mice
# Test context: male, CD-1, mouse, brain/plasma, cassette IV 5 mg/kg
Overview of recorded Kp at 5 min for various molecules

{"Molecule": "Cn1nnc2c(C(=O)NC3CCCCC3)ncn2c1=O", "Kp at 5 min": 0.99}
{"Molecule": "CCCCCCNC(=O)c1ncn2c(=O)n(C)nnc12", "Kp at 5 min": 0.71}
{"Molecule": "Cn1nnc2c(C(N)=O)ncn2c1=O [TMZ, temozolomide]", "Kp at 5 min": 0.23}

---

Entries annotated with measured Papp A→B
# Tested on: P-gp
# Test name: Bidirectional Caco-2 permeability / P-gp efflux assay
# Format: in vitro ADME
# Test context: human, Caco-2; without verapamil; read-out: Papp (AB) p-gp Inhibitor (−)

{"Compound": "CCCCCCNC(=O)c1ncn2c(=O)n(C)nnc12", "Papp A→B": "30.7 ×10⁻⁶ cm/s"}
{"Compound": "Cn1nnc2c(C(=O)NC3CCCCC3)ncn2c1=O", "Papp A→B": "26.6 ×10⁻⁶ cm/s"}
{"Compound": "Cn1nnc2c(C(N)=O)ncn2c1=O [TMZ, temozolomide]", "Papp A→B": "20.2 ×10⁻⁶ cm/s"}
